- Tested on: NCI-H460
- Measurement description: Growth inhibition of human NCI-H460 cells after 48 hrs by sulforhodamine B assay
- Format: functional
- Test parameters: NCI-H460, 48 h
Property label: GI50 (µM)
Give the value in µM but do not write µM after it.

The examples below pair each entry with its known result.
{"Molecule": "CC1(C)CCc2c(c(O)c(O)c3c(=O)cc(-c4ccccc4)oc23)O1", "GI50 [µM]": 17.7}
{"Molecule": "CC(C)=CCOc1ccc2c(=O)c(O)c(-c3ccccc3)oc2c1", "GI50 [µM]": 12.6}
{"Molecule": "CC1Oc2c(O)c(O)c3c(=O)cc(-c4ccccc4)oc3c2C1(C)C (stereo unspecified)", "GI50 [µM]": 40.6}
{"Molecule": "CC(C)=CCOc1ccc2c(=O)c(OCC=C(C)C)c(-c3ccccc3)oc2c1", "GI50 [µM]": 51.9}
{"Molecule": "CC(C)=CCC/C(C)=C/COc1ccc2c(=O)c(O)c(-c3ccccc3)oc2c1", "GI50 [µM]": 4.9}

According to the records, this molecule O=c1cc(-c2ccccc2)oc2cc(O)c(O)c(O)c12 [BAICALEIN] displays GI50 of 26.7

According to the records, this molecule O=c1c(O)c(-c2ccccc2)oc2cc(O)ccc12 [3,7-DIHYDROXYFLAVONE] displays GI50 of 15.4

According to the records, this molecule CC(C)=CCC/C(C)=C/COc1cc2oc(-c3ccccc3)cc(=O)c2c(O)c1O displays GI50 of 4.1

This collection of values is drawn from ChEMBL document CHEMBL1781896.
